- assay-comment: NCI Yeast Anticancer Drug Screen. Data for the sgs1 mgt1 strain (AID 161);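 further: 0% = growth of cultures given vehicle only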
- details: S. cerevisiae sgs1 mgt1 strain, at 50.0 µM, active compounds read high
The panel holds about 79,000 compounds, 15% with a hit somewhere; the sample as a whole holds those more often. Where a SMILES comes first, the peptide text is derived from it.
observed-property: growth inhibition (%)
Provide the reading as a plain figure in %.

- compound: "O=C(OCc1ccccc1)c1ccc(Cl)cc1"
  growth inhibition, %: 20.6
- compound: "Cc1cc2c(c(C)c1O)C(C)(C)CN2C(=O)C(C)(C)C"
  growth inhibition, %: 2.55
- compound: "COC(=O)C(=O)C1CSC2=C(CS(=O)(=O)c3ccccc32)C1=O (stereo not given)"
  growth inhibition, %: -10.6
- compound: "CCc1ccc(CC(=S)N2CCOCC2)cc1"
  growth inhibition, %: 5.55
- compound: "Cc1nn(-c2ccccc2)c2c1CC(=O)Nc1ccccc1-2"
  growth inhibition, %: -11.5

Recorded growth inhibition for "CC(=O)Oc1ccccc1[C@H]1CC(=O)C[C@H](c2ccccc2OC(C)=O)C12C(=O)c1ccccc1C2=O" , please?
-7.55

For the compound CC(C)CC(NC(=O)C(Cc1ccccc1)NC(=O)CNC(=O)CN)C(=O)O (stereo not given) (H-GGFL-OH; configuration not given here) , what growth inhibition is on record?
-11.4

Any idea what growth inhibition was measured for "Cc1ccc(I)cc1" ?
-33.9

Which growth inhibition reading was recorded for the compound COc1ccc(C2C3=C(COC3=O)Oc3cc4c(cc32)OCO4)cc1OC (stereo not given) ?
-17.9

Any idea what growth inhibition was measured for C#[N+]CCOP(=O)(OCC1OC(n2cc(C)c(=O)[nH]c2=O)CC1N=[N+]=[N-])O[C@H]1CC[C@@]2(C)C(=CC[C@H]3[C@@H]4CC[C@H](C(C)CCCC(C)C)[C@@]4(C)CC[C@@H]32)C1 (stereo not given in full) ?
-24.6

Form field: reported growth inhibition of CCOC(=O)C(CC(c1ccc2c(c1)OCO2)C(C(=O)N(C(C)C)C(C)C)[N+](=O)[O-])C(=O)OCC (stereo not given)
60.5

Name the recorded growth inhibition for NC(=O)CCC(NS(=O)(=O)c1ccc(NC(=O)c2ccccc2)cc1)C(=O)O (stereo not given) .
-22.9

What value of growth inhibition has been reported for the following compound? CC1CC[C@@]23CCC4(C)[C@@](C=CC5[C@@]6(C)CCC(=O)C(C)(C)C6CC[C@]54C)(OC2=O)[C@@H]3[C@H]1C (stereo not given in full)
-14.7

Entry CC(C)(C)OC(=O)NC1CCCCC1NC(=O)C(=O)NC1CCCCC1NC(=O)OC(C)(C)C (stereo not given) has what growth inhibition?
-14.8

growth inhibition for NC(CCC(=O)NC1(C(=O)O)C2CC3CC(C2)CC1C3)C(=O)O (stereo not given) ?
-5

Requested field: growth inhibition. Item: OC(c1cccnc1)C(CCc1ccccn1)c1ccccn1 (stereo not given)
-4.6

Endpoint output: growth inhibition of "c1ccc(N2CCN(c3ccccn3)CC2)nc1" . Value?
2.5

Which growth inhibition value belongs to C/C(=N\Nc1ccc([N+](=O)[O-])cc1[N+](=O)[O-])C1(C)CC=CCC1C (stereo not given) ?
0.4

Bench note: what growth inhibition did "O=NN(CCCl)C(=O)NCc1ccc[n+]([O-])c1" show?
-2

// lookup growth inhibition for "Cc1c(CCCl)c(Cl)n2c(nc3ccccc32)c1C#N"
39.4

The measured values listed here are drawn from PubChem BioAssay (NCI).
